pIC50 data for Platelet-activating factor receptor (Homo sapiens, UniProt P25105) follow.
Give bare numbers, as −log10 of the molar value.

Dear reader, for each entry below, please note its pIC50.
1. C/C1=C\CC[C@]2(C)O[C@@H]3C[C@@H](C)[C@](C)(CC1)[C@]14CO[C@](O)([C@H]2O)[C@]31O4
2. C/C1=C\CC[C@]2(C)O[C@@H]3C[C@@H](C)C(C)(CC1)C1=C3[C@](O)(OC1)[C@H]2O (single isomer, unassigned)
3. C/C1=C\CC[C@]2(C)O[C@H]2[C@@]2(O)OCC3=C2[C@H](O)C[C@@H](C)[C@]3(C)CC1
4. C/C1=C\CC[C@]2(C)O[C@H]2[C@@]2(O)OCC3=C2CC[C@@H](C)[C@]3(C)CC1

[reply]
1. 5.63
2. 5.90
3. 5.95
4. 6.24
